protocolText: Lipophilicity, log D of compound at pH 7.4
protocolConditions: buffer
property: logD
Give bare numbers.

Some entries whose results are on file:
| chemSmiles | logD |
| --- | --- |
| CCOC(=O)[C@@H](N)CCC(=O)NCCSC(=O)c1ccccc1.Cl | -0.37 |
| CCCCOC(=O)[C@@H](N)CCC(=O)NCCSC(C)=O.Cl | -0.88 |
| CCOC(=O)[C@@H](N)CCC(=O)NCCSC(=O)C(C)(C)C.Cl | -0.29 |
| CCOC(=O)[C@@H](N)CCC(=O)NCCSC(C)=O.Cl | -1.44 |

Shifting focus to the compound that follows.
response.value for "CCCOC(=O)[C@@H](N)CCC(=O)NCCSC(C)=O.Cl" (field: logD) = -1.21
